EXPERIMENTAL_SYSTEM: HIV Env of isolate CAP45.2.00.G3 (clade C) (HIV)
EXPERIMENTAL_DETAILS: cell-based or functional assay
READOUT_NAME: IC50 (µg/ml) with constrains (µg/mL)
Give just the number in µg/mL; leave the unit off.

BINDER | READOUT_UNITS | IC50 (µg/ml) with constrains
ePGDM9 (antibody, V domains shown) VH: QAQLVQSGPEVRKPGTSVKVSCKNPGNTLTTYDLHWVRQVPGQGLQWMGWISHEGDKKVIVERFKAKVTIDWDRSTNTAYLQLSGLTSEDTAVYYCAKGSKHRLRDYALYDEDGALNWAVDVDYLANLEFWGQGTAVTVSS VL: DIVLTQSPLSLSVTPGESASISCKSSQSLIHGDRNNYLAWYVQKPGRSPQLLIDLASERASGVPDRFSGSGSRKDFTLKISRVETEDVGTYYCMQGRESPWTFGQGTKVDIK | µg/mL | 0.001

Query block: Can you look up the measured IC50 (µg/ml) with constrains of ePGDM13 (antibody, V domains shown) VH: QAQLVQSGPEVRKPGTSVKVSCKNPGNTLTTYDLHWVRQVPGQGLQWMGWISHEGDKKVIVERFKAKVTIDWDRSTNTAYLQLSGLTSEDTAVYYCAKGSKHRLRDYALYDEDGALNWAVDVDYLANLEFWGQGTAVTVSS VL: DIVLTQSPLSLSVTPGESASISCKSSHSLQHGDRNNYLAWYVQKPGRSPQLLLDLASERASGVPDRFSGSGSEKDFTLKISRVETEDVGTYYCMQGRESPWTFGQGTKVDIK for me?
Result block: 0.002

Query block: Can you look up the measured IC50 (µg/ml) with constrains of PGDM1400 (antibody, V domains shown) VH: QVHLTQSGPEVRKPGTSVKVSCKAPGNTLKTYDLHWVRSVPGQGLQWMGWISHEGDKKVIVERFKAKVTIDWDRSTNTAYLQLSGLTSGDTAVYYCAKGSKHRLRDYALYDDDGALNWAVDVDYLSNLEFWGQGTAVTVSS VL: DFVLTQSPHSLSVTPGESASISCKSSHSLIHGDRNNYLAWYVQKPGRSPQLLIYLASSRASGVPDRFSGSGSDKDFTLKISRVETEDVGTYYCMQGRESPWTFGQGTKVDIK for me?
Result block: 0.001

Query block: Can you look up the measured IC50 (µg/ml) with constrains of ePGDM5 (antibody, V domains shown) VH: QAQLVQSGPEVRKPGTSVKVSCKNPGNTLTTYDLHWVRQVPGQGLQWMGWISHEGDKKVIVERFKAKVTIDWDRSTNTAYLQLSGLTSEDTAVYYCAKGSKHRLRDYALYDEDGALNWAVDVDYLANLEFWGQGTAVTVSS VL: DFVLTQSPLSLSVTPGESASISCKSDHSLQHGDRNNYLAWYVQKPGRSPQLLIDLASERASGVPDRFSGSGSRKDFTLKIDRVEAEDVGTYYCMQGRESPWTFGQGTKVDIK for me?
Result block: 0.001
